Test system: FLT3(D835Y);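 also: KINOMEscan scanMAX binding as percent activity remaining versus control; lower means stronger binding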
Details: Compound Concentration (nM):1000
Note to self: use 1.0 only for Percent Control readings below 40%; a reading exactly at 40% still gets 0.0.

Answered cases to consult:
molecule	category
COc1ccc2cc(-c3c(-c4ccncc4)nc(-c4ccc(S(C)(=O)=O)cc4C)n3C)ccc2c1	0.0
COc1cc(C=NNc2ncnc3c2cnn3-c2ccccc2)ccc1O [GW513184X]	1.0
CN(C)c1cc2c(Nc3ccc4c(cnn4Cc4ccccc4)c3)ncnc2cn1 [GW282974X]	0.0

Problem: A record lists COC(=O)Nc1nc2ccc(Oc3ccc(NC(=O)Nc4cc(C(F)(F)F)ccc4F)cc3)cc2s1.Cl [GW693917A] . Is its Percent Control below 40%?
Result: 1.0

Problem: Field entry: COc1cc2ncnc(Nc3ccc4c(cnn4Cc4ccccc4)c3)c2cc1OC.Cl [GW282449A]
Result: 0.0

Problem: Field entry: CC1=C(C(=O)Nc2ccc3[nH]ncc3c2)C(c2ccc3ccccc3c2)CC(=O)N1 (centres unmarked) [GSK270822A]
Result: 0.0

Problem: Field entry: COc1cc2ncn(-c3cc(O[C@H](C)c4ccccc4Cl)c(C(N)=O)s3)c2cc1OC [GSK237701A]
Result: 1.0
